Tested on: BRIN-BD11 rat clonal β-cells
Experiment: In vitro insulin release from BRIN-BD11 cells
Format: cell-based
Details: minimum concentration producing a significant increase in rate of insulin release; 5.6 mM glucose, 20 min, 37°C; n = 8
Bridges are numbered along the chain shown (N, C = ends). Where no end group is shown, it is not given here.
// values below are reported BRIN-BD11 cells (Threshold concentration)
Express it in pM; write the number only.

Observe how each entry below is paired with its result.
SEQUENCE_ENTRY	TGT	VALUE_UNITS	ASSAY_VALUE
GFSSIFRGVAKFASKGLGKDLAKLGVDLVASKISKQS [[C31S,C37S]Esculentin-2CHa, analogue with Cys31 and Cys37 replaced by serine]	BRIN-BD11 rat clonal β-cells	pM	10
GFSSIFRGVAKFASKGLGKDLAKLGVDKVACKISKQC (disulfide 31-37 (inferred)) [[L28K]Esculentin-2CHa, substituted analogue of esculentin-2CHa chosen for 28 day study]	BRIN-BD11 rat clonal β-cells	pM	10
GFSSIFRGVAKFASKGLGKKLAKLGVKLVACKISKQC (disulfide 31-37 (inferred)) [[D20K, D27K]Esculentin-2CHa, analogue with Asp20 and Asp27 replaced by L-Lysine]	BRIN-BD11 rat clonal β-cells	pM	100

Exercise: // BRIN-BD11 cells (Threshold concentration) lookup, key: GFSSIFRGVAKFASKGLGKDLAKLGVDLVAKKISKQC [[C31K]Esculentin-2CHa, substituted analogue of esculentin-2CHa with increased cationicity]
Key: 10

Exercise: // BRIN-BD11 cells (Threshold concentration) lookup, key: GFSSIFRGVAKFASKGLGKDLAKKGVDLVACKISKQC (disulfide 31-37 (inferred)) [[L24K]Esculentin-2CHa, substituted analogue of esculentin-2CHa with increased cationicity]
Key: 10

Exercise: // BRIN-BD11 cells (Threshold concentration) lookup, key: GFSSIFRGVAKFASKGLGKDKAKLGVDLVACKISKQC (disulfide 31-37 (inferred)) [[L21K]Esculentin-2CHa, substituted analogue of esculentin-2CHa with increased cationicity]
Key: 10

* * *

Tested on: high fat fed mice
Test: Acute in vivo glucose tolerance and insulin release
Parameters: species or system mouse
Conditions: ip glucose 18 mmol/kg with peptide 75 nmol/kg; AUC 0-60 min; mean ± SEM, n = 8
Bridges are numbered along the chain shown (N, C = ends). Where no end group is shown, it is not given here.
// values below are reported Plasma insulin (AUC)

SEQUENCE_ENTRY	MEASURED_ATTRIBUTE	ASSAY_VALUE
GFSSIFRGVAKFASKGLGKKLAKLGVKLVACKISKQC (disulfide 31-37 (inferred)) [[D20K, D27K]Esculentin-2CHa, analogue with Asp20 and Asp27 replaced by L-Lysine]	Plasma insulin (AUC)	122.96±16.76^Δ ng/ml.min
GFSSIFRGVAKFASKGLGKDLAKLGVDLVASKISKQS [[C31S,C37S]Esculentin-2CHa, analogue with Cys31 and Cys37 replaced by serine]	Plasma insulin (AUC)	122.74±28.65^Δ ng/ml.min
GFSSIFRGVAKFASKGLGKDKAKLGVDLVACKISKQC (disulfide 31-37 (inferred)) [[L21K]Esculentin-2CHa, substituted analogue of esculentin-2CHa with increased cationicity]	Plasma insulin (AUC)	131.12±14.25^Δ ng/ml.min
GFSSIFRGVAKFASKGLGKDLAKLGVDKVACKISKQC (disulfide 31-37 (inferred)) [[L28K]Esculentin-2CHa, substituted analogue of esculentin-2CHa chosen for 28 day study]	Plasma insulin (AUC)	262.81±30.56 ^,ΔΔΔ ng/ml.min
GFSSIFRGVAKFASKGLGKDLAKLGVDLVACKISKQC (disulfide 31-37 (inferred)) [Esculentin-2CHa, frog skin host-defense peptide first isolated from Lithobates chiricahuensis; synthetic]	Plasma insulin (AUC)	165.05 ± 16.89 ng·min/mL
GFSSIFRGVAKFASKGLGKDLAKLGVDLVAKKISKQC [[C31K]Esculentin-2CHa, substituted analogue of esculentin-2CHa with increased cationicity]	Plasma insulin (AUC)	240.32±31.04 ^,ΔΔΔ ng/ml.min

Exercise: // Plasma insulin (AUC) lookup, key: GFSSIFRGVAKFASKGLGKDLAKKGVDLVACKISKQC (disulfide 31-37 (inferred)) [[L24K]Esculentin-2CHa, substituted analogue of esculentin-2CHa with increased cationicity]
Key: 129.89±11.02^Δ ng/ml.min

* * *

Tested on: islets from NIH Swiss mice
Experiment: In vitro insulin release from isolated mouse islets
Format: cell-based
Conditions: 1 μM, 16.7 mM glucose, 1 h
Bridges are numbered along the chain shown (N, C = ends). Where no end group is shown, it is not given here.
// values below are reported Stimulation of insulin release from islets, fold of basal
Express it in fold; write the number only.

SEQUENCE_ENTRY	ASSAY_VALUE
GFSSIFRGVAKFASKGLGKDLAKLGVDKVACKISKQC (disulfide 31-37 (inferred)) [[L28K]Esculentin-2CHa, substituted analogue of esculentin-2CHa chosen for 28 day study]	3.4
GFSSIFRGVAKFASKGLGKDLAKLGVDLVAKKISKQC [[C31K]Esculentin-2CHa, substituted analogue of esculentin-2CHa with increased cationicity]	3.3

Exercise: Form entry - test system: islets from NIH Swiss mice; read-out: Stimulation of insulin release from islets, fold of basal; sequence: GFSSIFRGVAKFASKGLGKKLAKLGVKLVACKISKQC (disulfide 31-37 (inferred)) [[D20K, D27K]Esculentin-2CHa, analogue with Asp20 and Asp27 replaced by L-Lysine]
Key: 1.7

* * *

// values below are reported LDH release (% of control)
System: BRIN-BD11 cells
Conditions: 3 μM peptide (highest concentration); mean ± SEM, n = 8
Bridges are numbered along the chain shown (N, C = ends). Where no end group is shown, it is not given here.

SEQUENCE_ENTRY	LDH release (% of control)
GFSSIFRGVAKFASKGLGKKLAKLGVKLVACKISKQC (disulfide 31-37 (inferred)) [[D20K, D27K]Esculentin-2CHa, analogue with Asp20 and Asp27 replaced by L-Lysine]	102.5±2.6 % of control

Exercise: // LDH release (% of control) lookup, key: GFSSIFRGVAKFASKGLGKDLAKLGVDLVACKISKQC (disulfide 31-37 (inferred)) [Esculentin-2CHa, frog skin host-defense peptide first isolated from Lithobates chiricahuensis; synthetic]
Key: 102.7±1.1 % of control

Exercise: // LDH release (% of control) lookup, key: GFSSIFRGVAKFASKGLGKDKAKLGVDLVACKISKQC (disulfide 31-37 (inferred)) [[L21K]Esculentin-2CHa, substituted analogue of esculentin-2CHa with increased cationicity]
Key: 100.6±2.0 % of control

Exercise: // LDH release (% of control) lookup, key: GFSSIFRGVAKFASKGLGKDLAKKGVDLVACKISKQC (disulfide 31-37 (inferred)) [[L24K]Esculentin-2CHa, substituted analogue of esculentin-2CHa with increased cationicity]
Key: 101.3±3.1 % of control

* * *

// values below are reported Stimulation of insulin release from islets, fold of basal
Test system: islets from NIH Swiss mice
Test: In vitro insulin release from isolated mouse islets
Assay type: cell-based
Conditions: 1 μM, 16.7 mM glucose, 1 h
Bridges are numbered along the chain shown (N, C = ends). Where no end group is shown, it is not given here.
Please state the number and follow it with the unit.

SEQUENCE_ENTRY	ASSAY_VALUE
GFSSIFRGVAKFASKGLGKDLAKKGVDLVACKISKQC (disulfide 31-37 (inferred)) [[L24K]Esculentin-2CHa, substituted analogue of esculentin-2CHa with increased cationicity]	2.3 fold
GFSSIFRGVAKFASKGLGKDLAKLGVDLVACKISKQC (disulfide 31-37 (inferred)) [Esculentin-2CHa, frog skin host-defense peptide first isolated from Lithobates chiricahuensis; synthetic]	2.7 fold
GFSSIFRGVAKFASKGLGKDKAKLGVDLVACKISKQC (disulfide 31-37 (inferred)) [[L21K]Esculentin-2CHa, substituted analogue of esculentin-2CHa with increased cationicity]	2.6 fold

Let us examine a further case.
Exercise: // Stimulation of insulin release from islets, fold of basal lookup, key: GFSSIFRGVAKFASKGLGKDLAKLGVDLVASKISKQS [[C31S,C37S]Esculentin-2CHa, analogue with Cys31 and Cys37 replaced by serine]
Key: 2.6 fold
